ASSAY TARGET: T1, Boi1, P38041
T1 sequence (P38041 1-86, looked up): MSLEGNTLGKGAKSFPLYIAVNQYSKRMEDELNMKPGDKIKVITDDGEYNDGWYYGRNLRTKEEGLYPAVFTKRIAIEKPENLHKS
METHOD SUMMARY: SPOT array
PROTOCOL CONDITIONS: median of control spots 1162
METRIC NAME: SPOT intensity
Reply with just the number.

Below: 6 binders and their reported SPOT intensity.
AKDLIVPRRPEWNEG | 1450
DDEDVPPQLPTRTKS | 2
RKLRTVPGVPLIHLT | 0
KRKRRLPVSEDTNTK | 6
PLQSKIPMLPSRRTM | 0
PSRRDSLSIPRAVDA | 0

Field: next binder
Prompt: Which SPOT intensity reading was recorded for the binder RRRIAYPFYPFKKLG ?
Response: 2
